Assign pKd to each entry below.
biological target: T1, human PD1-ECD (human, UniProt Q15116 25-170); assay: SPR; row head 'Affinity KD 37°C [nM] *)', first of two values, footnote not explained
T1 construct: SPR analyte; also called hu PD1-ECD
Reminder that pKd means the negative base-10 logarithm of the concentration expressed in mol/L.

Prompt line: State its pKd: PD1-0103-0313 (antibody, human IgG1, V domains shown, Humanized) VH: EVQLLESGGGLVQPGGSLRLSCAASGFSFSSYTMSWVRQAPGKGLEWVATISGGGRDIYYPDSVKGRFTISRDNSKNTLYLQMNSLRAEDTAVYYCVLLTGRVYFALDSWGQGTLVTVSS VL: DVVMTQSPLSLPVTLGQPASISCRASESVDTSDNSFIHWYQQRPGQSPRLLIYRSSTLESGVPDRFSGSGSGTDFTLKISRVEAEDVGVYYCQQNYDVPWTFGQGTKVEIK
Response line: 8.72

Prompt line: State its pKd: PD1-0103-0315 (antibody, human IgG1, V domains shown, Humanized) VH: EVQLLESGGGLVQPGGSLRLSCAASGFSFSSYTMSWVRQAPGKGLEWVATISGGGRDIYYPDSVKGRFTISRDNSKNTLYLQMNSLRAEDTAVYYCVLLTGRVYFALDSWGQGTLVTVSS VL: EIVLTQSPATLSLSPGERATLSCRASESVDTSDNSFIHWYQQKPGQSPRLLIYRSSTLESGIPARFSGSGSGTDFTLTISSLEPEDFAVYYCQQNYDVPWTFGQGTKVEIK
Response line: 8.77

Prompt line: State its pKd: PD1-0103-0312 (antibody, human IgG1, V domains shown, Humanized) VH: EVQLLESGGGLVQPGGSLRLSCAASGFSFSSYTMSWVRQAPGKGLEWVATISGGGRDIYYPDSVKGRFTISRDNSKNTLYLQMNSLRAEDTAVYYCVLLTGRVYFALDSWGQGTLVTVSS VL: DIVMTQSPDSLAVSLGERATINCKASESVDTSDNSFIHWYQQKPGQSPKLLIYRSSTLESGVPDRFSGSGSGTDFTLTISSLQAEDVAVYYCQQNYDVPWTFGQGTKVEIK
Response line: 8.82

Prompt line: State its pKd: PD1-0103-0314 (antibody, human IgG1, V domains shown, Humanized) VH: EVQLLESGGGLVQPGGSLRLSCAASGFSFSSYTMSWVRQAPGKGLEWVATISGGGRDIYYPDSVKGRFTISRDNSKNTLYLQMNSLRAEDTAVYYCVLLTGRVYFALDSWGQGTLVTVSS VL: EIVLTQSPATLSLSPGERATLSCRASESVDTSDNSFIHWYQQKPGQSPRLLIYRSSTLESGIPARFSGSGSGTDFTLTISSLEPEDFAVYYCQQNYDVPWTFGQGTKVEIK
Response line: 8.80
